Values compiled from ChEMBL document CHEMBL5584206.

Biological target: UniProt:Q99677
Sequence (Q99677 whole entry): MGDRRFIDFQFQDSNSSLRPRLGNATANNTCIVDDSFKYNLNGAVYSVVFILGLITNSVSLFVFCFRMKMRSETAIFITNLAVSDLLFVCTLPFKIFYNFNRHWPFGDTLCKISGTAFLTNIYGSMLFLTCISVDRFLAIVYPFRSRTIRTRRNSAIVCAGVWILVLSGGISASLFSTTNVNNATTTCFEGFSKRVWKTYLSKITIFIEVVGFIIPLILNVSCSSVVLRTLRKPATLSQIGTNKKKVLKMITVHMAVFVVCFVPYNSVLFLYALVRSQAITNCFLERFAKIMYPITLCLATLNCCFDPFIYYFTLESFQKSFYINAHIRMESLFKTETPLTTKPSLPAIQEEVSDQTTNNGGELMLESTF
Assay: Agonist activity at LPAR4 (unknown origin)
Assay type: functional
pEC50: −log10 of the molar value.

{"sample.smiles": "O=C(COc1ccc(-c2cccc(Cl)c2)cc1)N[C@@H](Cc1ccc(OCc2ccccc2)cc1)C(=O)O", "measured.target": "UniProt:Q99677", "pEC50": "< 5.00"}

* * *

Target: Probable G-protein coupled receptor 34 (Homo sapiens, UniProt Q9UPC5)
Sequence (Q9UPC5 whole entry): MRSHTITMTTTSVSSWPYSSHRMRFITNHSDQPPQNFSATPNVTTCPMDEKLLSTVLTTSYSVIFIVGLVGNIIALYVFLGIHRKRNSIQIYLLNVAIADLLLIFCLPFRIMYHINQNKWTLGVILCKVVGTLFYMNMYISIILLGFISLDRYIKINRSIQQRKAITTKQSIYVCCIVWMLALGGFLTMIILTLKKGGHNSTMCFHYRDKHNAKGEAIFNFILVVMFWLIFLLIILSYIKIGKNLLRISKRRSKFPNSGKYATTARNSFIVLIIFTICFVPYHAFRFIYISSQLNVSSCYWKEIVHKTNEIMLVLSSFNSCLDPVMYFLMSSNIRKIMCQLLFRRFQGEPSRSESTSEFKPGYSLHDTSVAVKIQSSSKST
Experiment: Antagonist activity at GPR34 (unknown origin) by Glosensor cAMP assay
Assay type: functional
pIC50: −log10 of the molar value.
metric: pIC50

{"sample.smiles": "COc1cccc(OCC(=O)N[C@@H](Cc2ccc(OCc3ccccc3)cc2)C(=O)O)c1", "value.observed": "< 4.52"}
{"sample.smiles": "Cc1ccc(OCC(=O)N[C@@H](Cc2ccc(OCc3ccccc3)cc2)C(=O)O)cc1", "value.observed": "< 4.52"}
{"sample.smiles": "CC(C)c1ccc(OCC(=O)N[C@@H](Cc2ccc(OCc3ccccc3)cc2)C(=O)O)cc1", "value.observed": "< 4.52"}
{"sample.smiles": "O=C(COc1ccc(-c2ccc(Cl)cc2)cc1)N[C@@H](Cc1ccc(OCc2ccccc2)cc1)C(=O)O", "value.observed": 5.80}
{"sample.smiles": "COc1cccc(-c2ccc(OCC(=O)N[C@@H](Cc3ccc(OCc4ccccc4)cc3)C(=O)O)cc2)c1", "value.observed": "< 4.52"}
{"sample.smiles": "O=C(COc1ccc(-c2cccc(Cl)c2)cc1)N[C@@H](Cc1ccccc1)C(=O)O", "value.observed": "< 4.52"}
{"sample.smiles": "O=C(COc1ccc(-c2ccc(F)cc2)cc1)N[C@@H](Cc1ccc(OCc2ccccc2)cc1)C(=O)O", "value.observed": 6.01}
